Molecular target: Voltage-dependent N-type calcium channel subunit alpha-1B (Rattus norvegicus)
Sequence (Q02294 whole entry): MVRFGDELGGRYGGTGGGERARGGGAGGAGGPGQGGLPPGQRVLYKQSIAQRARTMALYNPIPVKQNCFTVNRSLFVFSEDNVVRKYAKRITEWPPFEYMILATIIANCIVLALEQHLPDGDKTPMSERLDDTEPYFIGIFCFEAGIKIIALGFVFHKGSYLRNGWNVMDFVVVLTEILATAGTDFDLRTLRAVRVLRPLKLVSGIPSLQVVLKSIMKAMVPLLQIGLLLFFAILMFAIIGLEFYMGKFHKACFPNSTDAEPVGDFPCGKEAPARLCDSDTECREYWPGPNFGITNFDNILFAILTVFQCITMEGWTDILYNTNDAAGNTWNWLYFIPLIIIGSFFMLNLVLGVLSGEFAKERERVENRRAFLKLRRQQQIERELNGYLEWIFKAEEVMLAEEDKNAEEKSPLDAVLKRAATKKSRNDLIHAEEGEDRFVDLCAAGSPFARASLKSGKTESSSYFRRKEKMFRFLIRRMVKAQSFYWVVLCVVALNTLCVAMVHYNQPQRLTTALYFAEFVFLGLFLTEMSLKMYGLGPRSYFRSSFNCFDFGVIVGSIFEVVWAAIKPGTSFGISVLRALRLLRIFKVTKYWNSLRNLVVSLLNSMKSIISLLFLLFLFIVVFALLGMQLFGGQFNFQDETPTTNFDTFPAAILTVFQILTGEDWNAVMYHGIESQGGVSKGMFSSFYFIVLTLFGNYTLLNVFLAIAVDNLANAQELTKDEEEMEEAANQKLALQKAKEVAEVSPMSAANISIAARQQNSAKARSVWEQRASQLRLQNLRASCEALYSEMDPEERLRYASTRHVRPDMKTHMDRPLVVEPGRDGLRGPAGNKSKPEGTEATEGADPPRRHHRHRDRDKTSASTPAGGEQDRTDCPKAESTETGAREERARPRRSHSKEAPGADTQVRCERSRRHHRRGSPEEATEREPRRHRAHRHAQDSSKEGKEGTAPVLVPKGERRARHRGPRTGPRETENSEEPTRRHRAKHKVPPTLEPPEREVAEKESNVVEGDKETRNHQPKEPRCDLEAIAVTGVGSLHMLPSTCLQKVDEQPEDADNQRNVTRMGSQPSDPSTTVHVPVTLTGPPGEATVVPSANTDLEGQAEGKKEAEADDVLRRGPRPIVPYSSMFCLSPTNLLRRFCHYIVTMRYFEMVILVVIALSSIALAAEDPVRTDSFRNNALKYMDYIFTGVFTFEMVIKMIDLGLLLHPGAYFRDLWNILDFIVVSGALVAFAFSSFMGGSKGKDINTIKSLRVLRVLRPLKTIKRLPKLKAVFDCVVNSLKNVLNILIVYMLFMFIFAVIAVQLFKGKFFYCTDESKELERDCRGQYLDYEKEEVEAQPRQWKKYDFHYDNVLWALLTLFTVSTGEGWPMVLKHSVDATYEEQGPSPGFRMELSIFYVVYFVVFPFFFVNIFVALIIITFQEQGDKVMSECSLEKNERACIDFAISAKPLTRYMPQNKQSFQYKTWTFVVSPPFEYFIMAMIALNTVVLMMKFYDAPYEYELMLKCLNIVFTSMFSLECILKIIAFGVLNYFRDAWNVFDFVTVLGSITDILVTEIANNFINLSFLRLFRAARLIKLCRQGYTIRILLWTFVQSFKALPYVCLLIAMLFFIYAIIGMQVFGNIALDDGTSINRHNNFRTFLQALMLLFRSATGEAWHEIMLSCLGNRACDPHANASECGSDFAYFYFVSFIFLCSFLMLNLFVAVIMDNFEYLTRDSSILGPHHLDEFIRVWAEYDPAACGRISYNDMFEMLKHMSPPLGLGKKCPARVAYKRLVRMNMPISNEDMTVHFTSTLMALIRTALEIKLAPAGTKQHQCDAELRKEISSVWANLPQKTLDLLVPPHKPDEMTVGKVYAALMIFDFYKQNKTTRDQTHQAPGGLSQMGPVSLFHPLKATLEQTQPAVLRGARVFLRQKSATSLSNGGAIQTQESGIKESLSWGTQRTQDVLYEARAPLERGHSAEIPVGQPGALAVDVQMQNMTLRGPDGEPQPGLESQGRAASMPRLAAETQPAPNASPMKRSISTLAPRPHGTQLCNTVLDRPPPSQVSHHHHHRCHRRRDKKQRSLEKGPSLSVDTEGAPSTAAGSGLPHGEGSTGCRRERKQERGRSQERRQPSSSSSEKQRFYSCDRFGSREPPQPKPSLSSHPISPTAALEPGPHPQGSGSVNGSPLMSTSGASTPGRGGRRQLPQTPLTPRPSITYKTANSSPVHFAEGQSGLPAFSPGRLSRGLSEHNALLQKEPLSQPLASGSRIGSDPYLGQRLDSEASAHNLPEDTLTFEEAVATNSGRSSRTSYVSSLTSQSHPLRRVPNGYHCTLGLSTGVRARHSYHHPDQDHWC
Test: Inhibition of rat brain Cav2.2 N-type channel expressed in HEK cells after 20 mins by FLIPR assay
Measured pIC50, listed per entry.
Hey, just a heads up that pIC50 is the negative log base 10 of the concentration in molar.

{"COMPOUND": "C[C@@H]1CN(C(c2ccccc2)c2ccccc2)[C@H](Cc2ccccc2)CN1", "pIC50": 5.36}
{"COMPOUND": "C[C@@H]1CN(Cc2ccccc2)[C@H](Cc2ccccc2)CN1S(=O)(=O)c1ccc(C(F)(F)F)cc1 (relative stereo)", "pIC50": 5.00}
{"COMPOUND": "CCCCCCCCC[C@@H]1CN[C@H](C)CN1Cc1ccccc1 (relative stereo)", "pIC50": 5.00}

-- ask Could you tell me which pIC50 is on file for C[C@@H]1CN(Cc2ccccc2)[C@H](CCCCO)CN1 (relative stereo) ?
-- reply 5.02

-- ask # iterate: CCCCC[C@@H]1CN[C@H](C)CN1C(c1ccccc1)c1ccccc1 (relative stereo)
-- reply 5.62

-- ask # iterate: C[C@@H]1CN(Cc2ccccc2)[C@H](CCCCO[Si](C)(C)C(C)(C)C)CN1 (relative stereo)
-- reply 5.31

-- ask # iterate: C[C@@H]1CN(Cc2ccc(F)cc2)[C@H](Cc2ccccc2)CN1S(=O)(=O)c1ccc(C(F)(F)F)cc1 (relative stereo)
-- reply 5.00

###

Organism: Rattus norvegicus
Assay: Selectivity ratio of IC50 for rat cardiac Cav1.2 L-type channel to IC50 for rat brain Cav2.2 N-type channel
The label depends only on Ratio IC50: y if it is at least 0.9, n if it is smaller.

Worked set:
{"MOLECULE": "C[C@@H]1CN(Cc2ccccc2)[C@H](CCCCO[Si](C)(C)C(C)(C)C)CN1 (relative stereo)", "CLASS ASSIGNMENT": "n"}
{"MOLECULE": "C[C@@H]1CN(Cc2ccccc2)[C@H](Cc2ccccc2)CN1S(=O)(=O)c1ccc(C(F)(F)F)cc1 (relative stereo)", "CLASS ASSIGNMENT": "y"}
{"MOLECULE": "Cc1ccc(S(=O)(=O)N2C[C@@H](CCCCO[Si](C)(C)C(C)(C)C)N(C(c3ccccc3)c3ccccc3)C[C@H]2C)cc1 (relative stereo)", "CLASS ASSIGNMENT": "y"}
{"MOLECULE": "CCCCCCCCC[C@@H]1CN[C@H](C)CN1Cc1ccccc1 (relative stereo)", "CLASS ASSIGNMENT": "n"}
{"MOLECULE": "Cc1ccc(S(=O)(=O)N2C[C@@H](CCCO[Si](C)(C)C(C)(C)C)N(C(c3ccccc3)c3ccccc3)C[C@H]2C)cc1 (relative stereo)", "CLASS ASSIGNMENT": "y"}

-- ask Assess whether reported Ratio IC50 for C[C@@H]1CN(Cc2ccc(F)cc2)[C@H](Cc2ccccc2)CN1S(=O)(=O)c1ccc(C(F)(F)F)cc1 (relative stereo) sits at 0.9 or higher.
-- reply y

###

Target: Voltage-dependent L-type calcium channel subunit alpha-1C (Rattus norvegicus, UniProt P22002)
Sequence (P22002 whole entry): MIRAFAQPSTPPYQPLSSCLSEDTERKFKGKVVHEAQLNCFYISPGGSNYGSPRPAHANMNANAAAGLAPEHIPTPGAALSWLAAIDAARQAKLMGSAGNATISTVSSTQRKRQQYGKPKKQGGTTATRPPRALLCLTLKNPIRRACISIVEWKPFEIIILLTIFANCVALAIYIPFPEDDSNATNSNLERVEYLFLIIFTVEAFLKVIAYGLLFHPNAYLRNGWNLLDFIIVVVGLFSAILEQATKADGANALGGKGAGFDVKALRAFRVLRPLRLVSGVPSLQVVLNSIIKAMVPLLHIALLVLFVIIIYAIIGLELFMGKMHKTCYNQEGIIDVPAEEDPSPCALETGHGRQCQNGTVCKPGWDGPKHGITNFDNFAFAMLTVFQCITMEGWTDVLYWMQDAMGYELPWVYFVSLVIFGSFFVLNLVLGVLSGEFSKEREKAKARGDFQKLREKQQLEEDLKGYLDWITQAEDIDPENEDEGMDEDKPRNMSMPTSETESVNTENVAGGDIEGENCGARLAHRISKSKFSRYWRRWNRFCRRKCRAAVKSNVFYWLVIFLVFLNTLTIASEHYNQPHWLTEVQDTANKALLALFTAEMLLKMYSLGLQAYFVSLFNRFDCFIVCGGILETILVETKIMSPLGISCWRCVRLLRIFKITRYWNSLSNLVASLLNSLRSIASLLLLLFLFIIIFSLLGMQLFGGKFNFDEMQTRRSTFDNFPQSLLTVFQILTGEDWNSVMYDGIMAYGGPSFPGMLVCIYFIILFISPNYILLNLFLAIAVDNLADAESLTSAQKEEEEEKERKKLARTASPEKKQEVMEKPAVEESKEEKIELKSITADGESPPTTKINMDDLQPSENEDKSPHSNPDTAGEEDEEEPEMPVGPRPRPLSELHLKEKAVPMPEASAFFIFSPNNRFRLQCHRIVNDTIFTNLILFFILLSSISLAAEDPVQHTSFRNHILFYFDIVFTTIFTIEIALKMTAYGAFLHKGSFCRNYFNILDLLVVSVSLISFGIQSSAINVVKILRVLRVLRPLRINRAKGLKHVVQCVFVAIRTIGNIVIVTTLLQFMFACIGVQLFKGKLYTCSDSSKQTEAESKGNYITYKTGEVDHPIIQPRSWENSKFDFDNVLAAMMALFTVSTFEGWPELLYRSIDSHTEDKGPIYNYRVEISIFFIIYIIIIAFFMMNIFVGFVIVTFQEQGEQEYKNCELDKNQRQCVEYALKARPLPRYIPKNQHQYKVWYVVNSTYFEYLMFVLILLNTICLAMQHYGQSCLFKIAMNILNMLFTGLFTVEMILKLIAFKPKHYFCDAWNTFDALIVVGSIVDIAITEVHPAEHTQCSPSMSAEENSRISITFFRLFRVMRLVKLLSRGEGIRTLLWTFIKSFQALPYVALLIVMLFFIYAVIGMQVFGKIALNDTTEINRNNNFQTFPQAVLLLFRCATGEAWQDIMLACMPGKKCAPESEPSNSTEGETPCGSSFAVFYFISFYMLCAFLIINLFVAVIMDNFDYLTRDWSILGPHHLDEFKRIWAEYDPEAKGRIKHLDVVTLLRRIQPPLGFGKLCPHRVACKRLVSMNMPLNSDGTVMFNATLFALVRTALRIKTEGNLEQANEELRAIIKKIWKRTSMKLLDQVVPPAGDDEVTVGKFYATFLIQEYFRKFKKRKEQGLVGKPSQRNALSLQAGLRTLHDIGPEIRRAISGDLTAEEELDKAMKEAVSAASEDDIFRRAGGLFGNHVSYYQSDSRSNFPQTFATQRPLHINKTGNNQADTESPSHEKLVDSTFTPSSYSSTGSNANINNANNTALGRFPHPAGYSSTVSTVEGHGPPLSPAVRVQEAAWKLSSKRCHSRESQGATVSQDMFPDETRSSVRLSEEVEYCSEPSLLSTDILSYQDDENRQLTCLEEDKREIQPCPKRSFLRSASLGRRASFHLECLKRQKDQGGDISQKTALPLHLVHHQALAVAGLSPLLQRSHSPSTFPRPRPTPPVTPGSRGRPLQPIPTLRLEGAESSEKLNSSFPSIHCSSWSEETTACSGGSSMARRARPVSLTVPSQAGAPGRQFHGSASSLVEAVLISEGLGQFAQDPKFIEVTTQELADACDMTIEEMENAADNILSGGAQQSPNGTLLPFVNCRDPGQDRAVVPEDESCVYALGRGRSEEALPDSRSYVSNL
Experiment: Inhibition of rat cardiac Cav1.2 L-type channel expressed in HEK cells after 20 mins by FLIPR assay
MEASUREMENT LABEL: IC50 (µM)
I only need the number, in µM, no unit after it.

{"COMPOUND": "C[C@@H]1CN(Cc2ccccc2)[C@H](CCCCO)CN1 (relative stereo)", "MEASURE UNIT": "µM", "IC50": 10}

-- ask Could you tell me which IC50 is on file for C[C@@H]1CN(Cc2ccccc2)[C@H](Cc2ccccc2)CN1 (relative stereo) ?
-- reply 10

-- ask # iterate: C[C@@H]1CN(C(c2ccccc2)c2ccccc2)[C@H](CCCCO[Si](C)(C)C(C)(C)C)CN1S(=O)(=O)c1ccc(C(F)(F)F)cc1 (relative stereo)
-- reply 10

-- ask # iterate: C[C@@H]1CN(Cc2ccccc2)[C@H](CCCCO[Si](C)(C)C(C)(C)C)CN1 (relative stereo)
-- reply 3.34

-- ask # iterate: CCCCCCCCC[C@@H]1CN[C@H](C)CN1Cc1ccccc1 (relative stereo)
-- reply 5.6

-- ask # iterate: Cc1ccc(S(=O)(=O)N2C[C@@H](CCCCO[Si](C)(C)C(C)(C)C)N(C(c3ccccc3)c3ccccc3)C[C@H]2C)cc1 (relative stereo)
-- reply 8.2

-- ask # iterate: C[C@@H]1CN(Cc2ccccc2)[C@H](Cc2ccccc2)CN1S(=O)(=O)c1ccc(C(F)(F)F)cc1 (relative stereo)
-- reply 10

###

Target: Voltage-dependent N-type calcium channel subunit alpha-1B (Rattus norvegicus)
Assay: Inhibition of rat brain Cav2.2 N-type channel expressed in HEK cells after 20 mins by FLIPR assay
Measured IC50, listed per entry.
I only need the number, in µM, no unit after it.

# count of solved cases: 2
{"COMPOUND": "C[C@@H]1CN(Cc2ccccc2)[C@H](Cc2ccccc2)CN1 (relative stereo)", "IC50 [µM]": 10}
{"COMPOUND": "C[C@@H]1CN(C(c2ccccc2)c2ccccc2)[C@H](CCCCO[Si](C)(C)C(C)(C)C)CN1S(=O)(=O)c1ccc(C(F)(F)F)cc1 (relative stereo)", "IC50 [µM]": 10}

Now take the following compound into account.
-- ask Lab note: need IC50 with Voltage-dependent N-type calcium channel subunit alpha-1B (Rattus norvegicus) for entry Cc1ccc(S(=O)(=O)N2C[C@@H](CCCO[Si](C)(C)C(C)(C)C)N(C(c3ccccc3)c3ccccc3)C[C@H]2C)cc1 (relative stereo) , please look it up.
-- reply 2.6
